# inhibition at 3 µM annotations
Target: RORγt (Homo sapiens, UniProt P51449)
Sequence (P51449 1-497 isoform P51449-2): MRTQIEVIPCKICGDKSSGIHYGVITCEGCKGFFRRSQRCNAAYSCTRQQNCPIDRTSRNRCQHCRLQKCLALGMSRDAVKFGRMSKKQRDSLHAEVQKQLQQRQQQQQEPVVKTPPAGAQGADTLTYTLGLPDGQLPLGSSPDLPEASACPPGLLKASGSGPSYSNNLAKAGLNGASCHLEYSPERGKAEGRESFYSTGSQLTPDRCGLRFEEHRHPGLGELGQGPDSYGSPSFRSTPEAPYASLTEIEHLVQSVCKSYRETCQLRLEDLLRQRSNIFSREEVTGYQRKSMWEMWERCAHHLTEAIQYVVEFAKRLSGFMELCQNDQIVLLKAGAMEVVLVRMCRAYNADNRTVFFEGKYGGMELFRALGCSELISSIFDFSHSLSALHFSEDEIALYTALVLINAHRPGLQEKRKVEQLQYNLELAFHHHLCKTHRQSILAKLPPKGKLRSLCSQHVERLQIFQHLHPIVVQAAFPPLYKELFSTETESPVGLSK
Assay: Jurkat reporter test (human IL-17 ROR response element luciferase reporter)
Format: cell-based
Conditions: Jurkat, read-out: luminescence level inhibitory rate (%) at test compound 3 μM

| molecule | inhibition at 3 µM, % |
| --- | --- |
| C[Si](C)(C)c1c(F)cc(NC(=O)[C@H](NC(=O)c2cc(O)no2)C2CCOCC2)cc1F [Example 3] | 98.4 |
| COCc1ccc(C(NC(=O)N2CC(O)C2)C(=O)Nc2ccc([Si](C)(C)C)c(F)c2)cc1 (stereo not shown) [Example 34] | 99.2 |
| COCc1ccc([C@@H](NC(=O)CCCC(=O)O)C(=O)Nc2cc(F)c([Si](C)(C)C)c(F)c2)cc1 [Example 107] | 100 |
| COc1ccc(C(C(=O)Nc2ccc([Si](C)(C)C)c(Cl)c2)N(C)C(=O)c2cc(O)no2)cc1 (stereo not shown) [Example 48] | 95.7 |
| COc1ccc(C(NC(=O)Cc2ccc(=O)[nH]c2)C(=O)Nc2ccc([Si](C)(C)C)cc2)cc1 (stereo not shown) [Example 16] | 93.2 |
| COCc1ccc([C@@H](NC(=O)CC(F)(F)F)C(=O)Nc2ccc([Si](C)(C)C)c(F)c2)cc1 [Example 93] | 99.1 |
| COCc1ccc(C(NC(=O)Cc2cnn(C)c2)C(=O)Nc2ccc([Si](C)(C)C)cc2)cc1 (stereo not shown) [Example 22] | 97.2 |

====

Target: RORγt (Homo sapiens, UniProt P51449)
Experiment: RORγt binding test (TR-FRET, fluorescent-labeled cholesterol)
Conditions: read-out: binding inhibitory rate (%) of fluorescent-labeled cholesterol to RORγt at test compound 1 μM
result type: inhibition at 1 µM

| compound | result type | value |
| --- | --- | --- |
| COCc1ccc([C@@H](NC(=O)Cn2c(=O)cc[nH]c2=O)C(=O)Nc2ccc([Si](C)(C)C)c(F)c2)cc1 | inhibition at 1 µM | 102% |
| COc1ccc(C(C(=O)Nc2ccc([Si](C)(C)C)c(F)c2)N(C)C(=O)c2cc(O)no2)cc1 (centres unmarked) | inhibition at 1 µM | 109% |
| COCc1ccc([C@@H](NC(=O)CCCC(=O)O)C(=O)Nc2cc(F)c([Si](C)(C)C)c(F)c2)cc1 | inhibition at 1 µM | 103% |
| COCc1ccc([C@@H](NC(=O)C2CCOCC2)C(=O)Nc2ccc([Si](C)(C)C)c(F)c2)cc1 | inhibition at 1 µM | 103% |
| COc1ccc(C(NC(=O)Cc2ccc(=O)[nH]c2)C(=O)Nc2ccc([Si](C)(C)C)cc2)cc1 (centres unmarked) | inhibition at 1 µM | 102% |
| COCc1ccc([C@@H](NC(=O)N2CC[C@@H](F)C2)C(=O)Nc2ccc([Si](C)(C)C)c(F)c2)cc1 | inhibition at 1 µM | 99.3% |
| COCc1ccc([C@@H](NC(=O)N2CC(O)C2)C(=O)Nc2ccc([Si](C)(C)C)c(F)c2)cc1 | inhibition at 1 µM | 103% |
| COc1ccc([C@@H](NC(=O)[C@H]2CNC(=O)C2)C(=O)Nc2ccc([Si](C)(C)C)c(F)c2)cc1 | inhibition at 1 µM | 101% |
| COCc1ccc([C@@H](NC(=O)[C@@H]2CNC(=O)C2)C(=O)Nc2cc(F)c([Si](C)(C)C)c(F)c2)cc1 | inhibition at 1 µM | 102% |
| COCc1ccc(C(C(=O)Nc2cc(F)c([Si](C)(C)C)c(F)c2)N(C)C(=O)c2cc(O)no2)cc1 (centres unmarked) | inhibition at 1 µM | 102% |
| COCc1ccc([C@@H](NC(=O)[C@H]2CNC(=O)C2)C(=O)Nc2ccc([Si](C)(C)C)c(F)c2)cc1 | inhibition at 1 µM | 102% |
| COc1ccc([C@H](C(=O)Nc2cc(F)c([Si](C)(C)C)cc2F)N(C)C(=O)c2cc(O)no2)cc1 | inhibition at 1 µM | 102% |
| COCc1ccc([C@@H](NC(=O)Cn2nc(C)ccc2=O)C(=O)Nc2cc(F)c([Si](C)(C)C)c(F)c2)cc1 | inhibition at 1 µM | 102% |
| COCc1ccc([C@@H](NC(=O)CCC(F)(F)F)C(=O)Nc2ccc([Si](C)(C)C)c(F)c2)cc1 | inhibition at 1 µM | 102% |

====

Biological target: RORγt (Homo sapiens, UniProt P51449)
Sequence (P51449 1-497 isoform P51449-2): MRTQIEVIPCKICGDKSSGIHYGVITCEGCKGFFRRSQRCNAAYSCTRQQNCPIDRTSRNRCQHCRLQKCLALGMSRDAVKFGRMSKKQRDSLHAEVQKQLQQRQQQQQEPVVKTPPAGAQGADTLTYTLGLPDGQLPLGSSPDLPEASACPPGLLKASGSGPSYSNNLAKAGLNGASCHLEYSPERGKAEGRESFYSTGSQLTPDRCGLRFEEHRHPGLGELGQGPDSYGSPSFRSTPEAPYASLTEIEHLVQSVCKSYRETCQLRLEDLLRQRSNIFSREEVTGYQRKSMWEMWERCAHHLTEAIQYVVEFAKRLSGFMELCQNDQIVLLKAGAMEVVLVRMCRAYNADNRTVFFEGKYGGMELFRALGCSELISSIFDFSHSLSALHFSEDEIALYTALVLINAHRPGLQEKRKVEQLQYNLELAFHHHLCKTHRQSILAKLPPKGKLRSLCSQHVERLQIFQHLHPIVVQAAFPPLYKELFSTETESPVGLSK
Assay: Cofactor recruitment test (Alpha Screen, biotinylated SRC-1 peptide)
Assay type: biochemical
Details: read-out: signal value inhibitory rate (%) at test compound 1 μM
result type: inhibition at 1 µM

| molecule | value |
| --- | --- |
| COCc1ccc([C@@H](NC(=O)Cc2cc(O)no2)C(=O)Nc2ccc(C(C)(C)C)c(F)c2)cc1 [Example 106] | 88% |
| COCc1ccc(C(NC(=O)Cc2cnn(C)c2)C(=O)Nc2ccc([Si](C)(C)C)cc2)cc1 (stereo not drawn) [Example 22] | 90.6% |
| COCc1ccc([C@@H](NC(=O)CS(C)(=O)=O)C(=O)Nc2ccc([Si](C)(C)C)c(F)c2)cc1 [Example 81] | 94.9% |
| COc1ccc([C@H](C(=O)Nc2cc(F)c([Si](C)(C)C)cc2F)N(C)C(=O)c2cc(O)no2)cc1 [Example 25] | 95.7% |
| COc1ccc(C(C(=O)Nc2ccc([Si](C)(C)C)c(F)c2)N(C)C(=O)c2cc(O)no2)cc1 (stereo not drawn) [Example 15] | 91.6% |
| COCc1ccc(C(NC(=O)[C@@H]2CNC(=O)C2)C(=O)Nc2ccc(CC(C)(C)C)c(F)c2)cc1 (mixture of isomers) [Example 110] | 71.1% |
| CC(C)(C)c1ccc(NC(=O)[C@H](NC(=O)[C@@H]2CNC(=O)C2)c2ccc3c(c2)CCO3)cc1F [Example 111] | 53% |
| COc1ccc([C@@H](NC(=O)N2CC[C@@H](O)C2)C(=O)Nc2ccc([Si](C)(C)C)c(F)c2)cc1 [Example 71] | 89.9% |
| COCc1ccc(C(NC(=O)Cc2cc(O)no2)C(=O)Nc2cc(F)c([Si](C)(C)C)c(F)c2)cc1 (stereo not drawn) [Example 39] | 99.6% |
| COCc1ccc([C@@H](NC(=O)CCCC(=O)O)C(=O)Nc2cc(F)c([Si](C)(C)C)c(F)c2)cc1 [Example 107] | 95.7% |
| COc1ccc([C@@H](NC(=O)c2cc(O)no2)C(=O)Nc2ccc([Si](C)(C)C)c(F)c2)cc1 [Example 83] | 86.5% |
| COCc1ccc(C(NC(=O)Cc2nnc(C)o2)C(=O)Nc2ccc([Si](C)(C)C)c(F)c2)cc1 (stereo not drawn) [Example 35] | 96.6% |
| COc1ccc(C(NC(=O)C2CNC(=O)C2)C(=O)Nc2ccc([Si](C)(C)C)c(F)c2)cc1 (stereo not drawn) [Example 28] | 88% |
| COCc1ccc([C@@H](NC(=O)N2CC[C@H](F)C2)C(=O)Nc2ccc([Si](C)(C)C)c(F)c2)cc1 [Example 96] | 91.2% |
| COCc1ccc([C@@H](NC(=O)Cn2nc(C)ccc2=O)C(=O)Nc2cc(F)c([Si](C)(C)C)c(F)c2)cc1 [Example 61] | 97% |
